# assay_explanation: Kinetic Parameter k3/k1 for Inhibition of Type-2 5-alpha-reductase
Please go through the items and note down their k3/ki.
Please don't drop the unit; write it after the number.

A selection of reference data follows.
{"columns": ["molecule", "k3/ki"],
 "data": [
  ["C[C@]12C=CC(=O)NC1CCC1C2CC[C@]2(C)C(C(=O)Nc3ccccc3C(F)(F)F)CCC12 (some centres undefined)", "9700000 M⁻¹ s⁻¹"],
  ["C[C@]12C=CC(=O)NC1CCC1C2CC[C@]2(C)C(C(=O)Nc3cccc(-c4ccccc4)c3)CCC12 (some centres undefined)", "5000000 M⁻¹ s⁻¹"],
  ["C[C@]12C=CC(=O)NC1CCC1C2CC[C@]2(C)C(C(=O)Nc3ccccc3)CCC12 (some centres undefined)", "1700000 M⁻¹ s⁻¹"]
]}

Now look at this entry.
Task: Would you kindly share the measured k3/ki for C[C@]12C=CC(=O)NC1CCC1C2CC[C@]2(C)C(C(=O)Nc3cc(C(F)(F)F)ccc3C(F)(F)F)CCC12 (some centres undefined) ?
Result: 7000000 M⁻¹ s⁻¹
